Origin of values: the Human Domainome abundance scans (Beltran et al. 2025)

B1: Ankyrin repeat and SOCS box protein 14, residues 532 to 572; numbered along this chain, A6NK59 (parent)
chain: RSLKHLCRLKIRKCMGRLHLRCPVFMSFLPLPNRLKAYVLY

# Variants of: B1
# assayText: abundance fitness (aPCA) (normalised: wild type 0, dead -1); higher = more abundant; growth selection in yeast, the domain comes from the species named
# testContext: Homo sapiens
Answer 0 (no) if abundance fitness is under -0.1, and 1 (yes) if it is -0.1 or more.

Recorded results for 5 variants are shown here.
primarysequence=RSLKHLCRLKIRKCMGRLHLRCPVFMSFLPKPNRLKAYVLY category="0 (no)"
primarysequence=RSLKHLQRLKIRKCMGRLHLRCPVFMSFLPLPNRLKAYVLY category="0 (no)"
primarysequence=RSLKHLCRLKIRKCMGRLHLRCPVFMSFLPLPNRLKAYVEY category="1 (yes)"
primarysequence=RSLKHLCRLKIRKCMGRLFLRCPVFMSFLPLPNRLKAYVLY category="1 (yes)"
primarysequence=RSLKHLCRLKIRKCMGRLHLRCPVFMSFLPWPNRLKAYVLY category="0 (no)"

Req: Could you please find out whether RSLKHLCRLKIRKCMGRLHLRCPVFMSFLPIPNRLKAYVLY has abundance fitness that meets -0.1 or exceeds it?
Resp: 1 (yes)

Req: Could you please find out whether RSLKHLCRLKIRKCMGRLHLRCPVFMSFLPLPNHLKAYVLY has abundance fitness that meets -0.1 or exceeds it?
Resp: 0 (no)

Req: Could you please find out whether RSLKHLMRLKIRKCMGRLHLRCPVFMSFLPLPNRLKAYVLY has abundance fitness that meets -0.1 or exceeds it?
Resp: 1 (yes)

Req: Could you please find out whether RSLKHLCQLKIRKCMGRLHLRCPVFMSFLPLPNRLKAYVLY has abundance fitness that meets -0.1 or exceeds it?
Resp: 1 (yes)

Req: Could you please find out whether RSLKHLCRLKIWKCMGRLHLRCPVFMSFLPLPNRLKAYVLY has abundance fitness that meets -0.1 or exceeds it?
Resp: 0 (no)

Req: Could you please find out whether RSLKHLCRLRIRKCMGRLHLRCPVFMSFLPLPNRLKAYVLY has abundance fitness that meets -0.1 or exceeds it?
Resp: 0 (no)
